src = patent US20110190200A1

molecular target: glucagon receptor (human, UniProt P47871 26-477); assay: cell-based or functional assay
Sequence (P47871 26-477): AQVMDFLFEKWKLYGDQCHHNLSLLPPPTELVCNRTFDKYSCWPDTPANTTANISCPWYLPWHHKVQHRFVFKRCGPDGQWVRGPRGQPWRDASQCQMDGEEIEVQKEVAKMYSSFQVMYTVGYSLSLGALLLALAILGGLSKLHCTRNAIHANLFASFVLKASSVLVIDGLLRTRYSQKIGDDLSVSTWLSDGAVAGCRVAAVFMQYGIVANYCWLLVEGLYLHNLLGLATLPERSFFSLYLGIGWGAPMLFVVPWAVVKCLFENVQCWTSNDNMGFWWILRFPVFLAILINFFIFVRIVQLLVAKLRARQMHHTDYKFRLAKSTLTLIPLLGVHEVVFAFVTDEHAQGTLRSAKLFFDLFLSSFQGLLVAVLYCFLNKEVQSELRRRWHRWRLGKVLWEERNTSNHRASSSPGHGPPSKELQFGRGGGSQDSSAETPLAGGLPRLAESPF
Square brackets hold non-standard residues; d marks the D form. Ends that are not written are not given here. * marks the point of attachment. Met(O) = CS(=O)CC[C@H](N)C(=O)O; Nle = CCCC[C@H](N)C(=O)O; Orn = NCCC[C@H](N)C(=O)O; Dab = NCC[C@H](N)C(=O)O; Dap = NC[C@H](N)C(=O)O; Aib = CC(C)(N)C(=O)O; Carbamoyl = NC(=O)*
Overview of recorded EC50 at Glucagon Receptor for various binders
Kindly answer with a numeric value in nM, unit omitted.

Worked cases, EC50 at Glucagon Receptor given:
[[record]]
binder = "HS[Dab](Ac)GTFTSDYSKYLDTRRAAEFVAWL[Nle]DE [Peptide J backbone, Dab(Ac) at position 3]"
meas_value = 0.31

[[record]]
binder = "HS[Met(O)]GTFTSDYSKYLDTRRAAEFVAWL[Nle]DE [Peptide J backbone, M(O) at position 3]"
meas_value = 0.91


Ask | Query: EC50 at Glucagon Receptor; subject: HS[Dab](Ac)GTFTSDYSKYLD[Aib]RRAADFVAWLMDE [Peptide K backbone, Dab(Ac) at position 3]
Reply | 0.07

Ask | Would you mind doing HS[Orn](Ac)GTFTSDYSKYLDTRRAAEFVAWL[Nle]DE [Peptide J backbone, Orn(Ac) at position 3] as well?
Reply | 0.92

Ask | // same read-out, input: HS[Dap](Carbamoyl)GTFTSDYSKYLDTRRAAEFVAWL[Nle]DE [Peptide J backbone, Dap(urea) at position 3]
Reply | 0.48
